// data source = patent US20230295310A1

- target.under.test: T1, human CD3e/g (human, UniProt P07766 23-126; P09693 23-116)
- T1 construct: Bought soluble protein; also called hCD3e/g; human CD3e/g (Acro CDD-C52W4)
- test.description: SPR (Carterra LSA), mAb on chip
pKd: −log10 of the molar value.
test.readout: pKd

>>> result("mAb 71 (antibody, V domains shown, VH and VL only) VH: QVQLVQSGAEVRKPGASVKVSCKASGYTFTKYDVNWVRQAPGQGLEWMGWMNSNNGNIGYAQKFQGRVTMTRKTSISTAYMELSSLRSEDTAVYYCAREGHYDFWRGFYNFDYWGQGTLVTVSS VL: DIQMTQSPSSLSASVGDRVTITCRASQDIKNDLGWYQQKPGKAPKRLIYAASSLQSGVPSRFSGSGSGTEFTLTISSLQPEDFATYYCLQHNFYPITFGQGTRLEIK")
6.95
>>> result("mAb 98 (antibody, V domains shown, VH and VL only) VH: QVHLVESGGDVVQPGRSLRLSCSASGFTFSGYGMHWVRQAPGKGLEWVALIYFDGRNKYYADSVKGRFTISRDNSKNTLYLQMNSLRAEDTAVYYCARGGGYNWFDPWGQGTLVTVSS VL: DIQMTQSPSSLSASVGDRVTITCRASQSINNYLNWYQQKPGKAPKLLIYLASSLQSGVPSRFSGSGSGTDFTLTISSLQPEDLATYYCQLSYSSPFTFGPGTKVDVK")
7.95
>>> result("mAb 110 (antibody, V domains shown, VH and VL only) VH: QVQLVESGGGVVQPGRSLRLSCAASGFTFRSYGMHWVRQAPGKGLEWVAIIWYNGNKKDYVDSVKGRFTISRDNSKNMLYLQMNSLRAEDTALYYCARGPGYNWFDPWGQGTLVTVSS VL: DIQMTQSPPSLSASVGDRVTITCRASQRISSYLNWYQQRPGKAPKLLIYAASSLQSGVPSRFSGSGSGTDFTLTISSLQPEDFATYYCQQTDSFPLTFGGGTKVEII")
8.05
